Value source: ChEMBL document CHEMBL1152196

- EXPERIMENT DESCRIPTION: Inhibition of PKA
Property: pIC50; scope: individual compounds
In plain terms, pIC50 is the concentration in mol/L turned into minus its base-10 logarithm.

Use the examples below as a reference point.
COMPOUND: Nc1nccc(-c2ccc3nc(C4COc5ccccc5C4)[nH]c3c2)n1 (stereo not given)
READING: 6.70
//
COMPOUND: c1ccc2c(c1)CC(c1nc3ccc(-c4cn[nH]c4)cc3o1)CO2 (stereo not given)
READING: 5.92
//
COMPOUND: Cc1ccc2c(c1)CC(c1nc3ccc(-c4ccnc(N)n4)cc3o1)CO2 (stereo not given)
READING: 5.19
//
COMPOUND: Cc1[nH]ncc1-c1ccc2nc(C3COc4ccccc4C3)[nH]c2c1 (stereo not given)
READING: 6.91
//
COMPOUND: COc1ccc2c(c1)CC(c1nc3c(F)cc(-c4ccnc(N)n4)cc3[nH]1)CO2 (stereo not given)
READING: 6.40

Note to self: pIC50 recorded for Nc1nccc(-c2ccc3nc(C4COc5ccc(C(=O)NCc6ccccc6)cc5C4)[nH]c3c2)n1 (stereo not given) was 7.12

# pIC50 (compound: Nc1nccc(-c2ccc3nc(C4COc5ccc(F)cc5C4)[nH]c3c2)n1 (stereo not given) ) is 6.57

###

- EXPERIMENT DESCRIPTION: Metabolic stability in human liver microsomes
- Assay type: ADME, Microsome
Consider the following compounds and their measured half-life readings.
The reply should contain only the number, in min.

COMPOUND: c1ccc2c(c1)CC(c1nc3ccc(-c4ccncc4)cc3[nH]1)CO2 (stereo not given)
READING: 29
//
COMPOUND: Nc1nccc(-c2ccc3nc(C4COc5ccccc5C4)[nH]c3c2)n1 (stereo not given)
READING: 44
//
COMPOUND: Cc1[nH]ncc1-c1ccc2nc(C3COc4ccccc4C3)oc2c1 (stereo not given)
READING: 70
//
COMPOUND: COc1ccc2c(c1)CC(c1nc3ccc(-c4ccnc(N)n4)cc3[nH]1)CO2 (stereo not given)
READING: 28
//
COMPOUND: Nc1nccc(-c2ccc3nc(C4COc5ccc(C(=O)NC6CC6)cc5C4)[nH]c3c2)n1 (stereo not given)
READING: 79
//
COMPOUND: c1ccc2c(c1)CC(c1nc3ccc(-c4cn[nH]c4)cc3[nH]1)CO2 (stereo not given)
READING: 20

# half-life (compound: Cc1[nH]ncc1-c1ccc2nc(C3COc4ccccc4C3)[nH]c2c1 (stereo not given) ) is 30

Documented half-life of Cc1ccc2c(c1)CC(c1nc3ccc(-c4ccnc(N)n4)cc3o1)CO2 (stereo not given) : 25

Per the record, COc1ccc2c(c1)CC(c1nc3ccc(-c4ccnc(N)n4)cc3o1)CO2 (stereo not given) has half-life of 34

Notebook: COC(=O)c1ccc2c(c1)CC(c1nc3ccc(-c4ccnc(N)n4)cc3[nH]1)CO2 (stereo not given) , half-life read as 18

###

- SUBJECT OF TEST: Rho-associated protein kinase 2 (Homo sapiens)
- Sequence (O75116 whole entry): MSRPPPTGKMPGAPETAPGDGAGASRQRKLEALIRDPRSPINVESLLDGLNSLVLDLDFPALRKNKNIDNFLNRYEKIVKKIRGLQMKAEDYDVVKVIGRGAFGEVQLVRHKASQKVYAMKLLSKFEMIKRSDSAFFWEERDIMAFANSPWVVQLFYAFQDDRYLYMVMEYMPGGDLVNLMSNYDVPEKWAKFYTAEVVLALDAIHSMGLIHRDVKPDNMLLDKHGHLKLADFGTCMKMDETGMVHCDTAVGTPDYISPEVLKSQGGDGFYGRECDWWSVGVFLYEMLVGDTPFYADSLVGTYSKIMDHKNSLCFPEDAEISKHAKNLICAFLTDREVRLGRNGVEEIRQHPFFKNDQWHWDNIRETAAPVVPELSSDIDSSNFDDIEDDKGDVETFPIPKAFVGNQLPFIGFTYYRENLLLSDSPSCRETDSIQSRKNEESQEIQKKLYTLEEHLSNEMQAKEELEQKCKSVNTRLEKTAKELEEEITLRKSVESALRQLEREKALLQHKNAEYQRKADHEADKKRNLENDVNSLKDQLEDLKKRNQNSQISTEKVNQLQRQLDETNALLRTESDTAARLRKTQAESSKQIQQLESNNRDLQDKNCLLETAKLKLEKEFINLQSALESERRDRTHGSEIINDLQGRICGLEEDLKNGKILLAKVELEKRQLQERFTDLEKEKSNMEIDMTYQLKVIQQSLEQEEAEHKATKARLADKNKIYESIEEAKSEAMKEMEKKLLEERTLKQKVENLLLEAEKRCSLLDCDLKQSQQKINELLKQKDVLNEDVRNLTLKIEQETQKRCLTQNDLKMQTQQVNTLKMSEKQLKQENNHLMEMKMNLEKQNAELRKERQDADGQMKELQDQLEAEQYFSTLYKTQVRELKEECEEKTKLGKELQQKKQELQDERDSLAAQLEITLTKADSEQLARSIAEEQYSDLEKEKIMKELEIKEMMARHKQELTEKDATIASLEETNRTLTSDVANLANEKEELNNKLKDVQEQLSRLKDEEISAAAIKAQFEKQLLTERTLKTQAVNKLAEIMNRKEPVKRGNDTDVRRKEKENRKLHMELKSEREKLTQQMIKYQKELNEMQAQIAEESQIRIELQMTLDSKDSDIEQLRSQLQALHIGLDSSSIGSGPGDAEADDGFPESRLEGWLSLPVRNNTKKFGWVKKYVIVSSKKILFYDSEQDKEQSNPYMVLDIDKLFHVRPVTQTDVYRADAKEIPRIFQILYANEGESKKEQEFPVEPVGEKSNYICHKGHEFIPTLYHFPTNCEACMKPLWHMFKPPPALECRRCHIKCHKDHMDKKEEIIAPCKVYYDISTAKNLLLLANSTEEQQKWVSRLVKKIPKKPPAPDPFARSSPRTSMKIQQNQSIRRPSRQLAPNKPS
- EXPERIMENT DESCRIPTION: Inhibition of ROCK2
QUANTITY MEASURED: pIC50
The value called pIC50 is obtained by taking minus log10 of the concentration in mol/L.

COMPOUND: CC(C)Oc1ccc2c(c1)CC(c1nc3ccc(-c4ccnc(N)n4)cc3[nH]1)CO2 (configuration not stated)
pIC50: 6.53

Response field pIC50 (Rho-associated protein kinase 2 (Homo sapiens)) for item Cc1[nH]ncc1-c1ccc2nc(C3COc4ccccc4C3)[nH]c2c1 (configuration not stated) : 8.05

The observed pIC50 for Cc1[nH]ncc1-c1ccc2nc(C3COc4ccccc4C3)oc2c1 (configuration not stated) when tested with Rho-associated protein kinase 2 (Homo sapiens) stands at 8.05

pIC50 value, target or system Rho-associated protein kinase 2 (Homo sapiens), for c1ccc2c(c1)CC(c1nc3ccc(-c4ccncc4)cc3[nH]1)CO2 (configuration not stated) : 8.70

Record Nc1nccc(-c2ccc3nc(C4COc5ccccc5C4)[nH]c3c2)n1 (configuration not stated) / Rho-associated protein kinase 2 (Homo sapiens), pIC50 recorded as 8.10

pIC50 on Rho-associated protein kinase 2 (Homo sapiens) for Nc1nccc(-c2ccc3nc(C4COc5ccccc5C4)oc3c2)n1 (configuration not stated) is 7.57

Rho-associated protein kinase 2 (Homo sapiens) assay, compound COC(=O)c1ccc2c(c1)CC(c1nc3ccc(-c4ccnc(N)n4)cc3o1)CO2 (configuration not stated) , recorded pIC50 = 7.62

Measured pIC50 (Rho-associated protein kinase 2 (Homo sapiens)), entry COC(=O)c1ccc2c(c1)CC(c1nc3ccc(-c4ccnc(N)n4)cc3[nH]1)CO2 (configuration not stated) : 8.22

Rho-associated protein kinase 2 (Homo sapiens) assay, compound Nc1nccc(-c2ccc3nc(C4COc5ccc(F)cc5C4)oc3c2)n1 (configuration not stated) , recorded pIC50 = 7.82

###

- EXPERIMENT DESCRIPTION: Inhibition of PKA
IC50 by entry:
Number only, in nM; omit the unit.

Reference set (2 entries):
COMPOUND: c1ccc2c(c1)CC(c1nc3ccc(-c4cn[nH]c4)cc3[nH]1)CO2 (stereo not drawn)
QUANTITY MEASURED: IC50
UNIT SPEC: nM
READING: 168
--
COMPOUND: Nc1nccc(-c2ccc3nc(C4COc5ccccc5C4)oc3c2)n1 (stereo not drawn)
QUANTITY MEASURED: IC50
UNIT SPEC: nM
READING: 1340

IC50 measured on COc1ccc2c(c1)CC(c1nc3ccc(-c4ccnc(N)n4)cc3[nH]1)CO2 (stereo not drawn) = 602

###

IC50 values, listed per item
- SUBJECT OF TEST: UniProt O75116
- EXPERIMENT DESCRIPTION: Inhibition of ROCK2

MOLECULE: Nc1nccc(-c2ccc3nc(C4COc5ccc(C(=O)NCc6ccccc6)cc5C4)[nH]c3c2)n1 (stereo not drawn)
IC50: < 1 nM
--
MOLECULE: Nc1nccc(-c2ccc3nc(C4COc5ccc(C(=O)NC6CC6)cc5C4)[nH]c3c2)n1 (stereo not drawn)
IC50: < 1 nM

Quick note, IC50 for COc1ccc2c(c1)CC(c1nc3c(F)cc(-c4ccnc(N)n4)cc3[nH]1)CO2 (stereo not drawn) landed at < 1 nM
